test system: HSkMC (human skeletal muscle cells); assay: cytotoxicity call (relative viability < 0.9); conditions: 10 µM
In all, about 39,000 compounds went through this assay and about 1,500 (3.8%) were called active. Many of the other results were omitted from the sample, so actives are more common in it than they were.
Possible outcomes: True = active, False = inactive

* COc1ccc(NC(=O)Nc2ccc3c(c2)CC(=O)N([C@H](C)CO)C[C@@H](C)[C@H](CN(C)Cc2ccc(C(F)(F)F)cc2)O3)cc1 | False
* NCC[C@H]1CC[C@@H](NC(=O)c2ccccc2F)[C@@H](CO)O1 | False
* COc1ccc(NC(=O)Nc2ccc3c(c2)CC(=O)N([C@@H](C)CO)C[C@H](C)[C@H](CN(C)Cc2ccc(C(F)(F)F)cc2)O3)cc1 | True
* COc1ccc(NC(=O)Nc2ccc3c(c2)CC(=O)N([C@H](C)CO)C[C@H](C)[C@H](CN(C)Cc2ccc(C(F)(F)F)cc2)O3)cc1 | False
* C[C@@H]1CCCCO[C@@H](CN(C)S(=O)(=O)c2ccc(F)cc2)[C@H](C)CN([C@H](C)CO)C(=O)c2cc(NS(=O)(=O)c3ccc(Cl)cc3)ccc2O1 | False
* COc1ccc(NC(=O)Nc2ccc3c(c2)CC(=O)N([C@H](C)CO)C[C@@H](C)[C@@H](CN(C)Cc2ccc(C(F)(F)F)cc2)O3)cc1 | True
* O=C(C[C@H]1CC[C@@H]2[C@H](COC[C@@H](O)CN2C(=O)c2cccnc2)O1)NCC1CC1 | False
